Target: truncated PI3Kα (p110α/iSH2 p85α) (Homo sapiens (Human), UniProt P42336)
Sequence (P42336 whole entry, the tested form may be a part): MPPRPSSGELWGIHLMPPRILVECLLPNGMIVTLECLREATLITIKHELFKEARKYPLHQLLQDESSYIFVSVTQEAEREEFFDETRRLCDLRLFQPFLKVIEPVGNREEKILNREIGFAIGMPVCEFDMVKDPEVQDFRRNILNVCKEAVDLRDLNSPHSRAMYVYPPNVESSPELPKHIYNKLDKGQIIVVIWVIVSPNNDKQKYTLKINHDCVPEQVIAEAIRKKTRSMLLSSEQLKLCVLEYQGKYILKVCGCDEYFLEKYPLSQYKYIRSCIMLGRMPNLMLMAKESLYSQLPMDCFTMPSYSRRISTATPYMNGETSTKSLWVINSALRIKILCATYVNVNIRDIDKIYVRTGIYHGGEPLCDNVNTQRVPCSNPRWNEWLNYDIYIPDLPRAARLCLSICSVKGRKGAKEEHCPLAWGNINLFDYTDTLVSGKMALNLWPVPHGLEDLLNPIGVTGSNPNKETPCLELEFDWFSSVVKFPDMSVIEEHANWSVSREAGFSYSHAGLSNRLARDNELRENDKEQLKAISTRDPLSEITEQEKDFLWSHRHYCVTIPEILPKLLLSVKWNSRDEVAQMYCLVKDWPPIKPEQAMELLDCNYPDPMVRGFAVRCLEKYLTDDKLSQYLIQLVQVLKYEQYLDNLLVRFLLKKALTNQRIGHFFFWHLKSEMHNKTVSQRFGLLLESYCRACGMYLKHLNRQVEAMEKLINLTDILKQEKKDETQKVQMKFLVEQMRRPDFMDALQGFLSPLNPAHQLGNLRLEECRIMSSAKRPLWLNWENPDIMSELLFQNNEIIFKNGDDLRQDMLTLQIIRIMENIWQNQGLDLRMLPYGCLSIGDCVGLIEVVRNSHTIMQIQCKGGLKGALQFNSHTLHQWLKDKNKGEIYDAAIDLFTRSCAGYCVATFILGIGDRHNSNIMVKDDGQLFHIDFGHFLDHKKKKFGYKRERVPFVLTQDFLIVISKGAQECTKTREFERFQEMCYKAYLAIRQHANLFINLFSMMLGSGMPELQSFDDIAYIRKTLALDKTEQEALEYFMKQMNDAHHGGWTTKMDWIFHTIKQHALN
Assay: PI3KA_Act fluorescence polarization kinase assay (Ki)
Format: biochemical
Settings: 1 mM ATP
reportedMetric: PI3KA_Act Ki (nM)

{"columns": ["testSmiles", "reportedMetric", "unitAnnotation", "numericResult"],
 "data": [
  ["C[C@H]1COCCN1c1nc(-c2cnc(N)nc2)c2c(n1)N([C@@]1(C)CCN(C(=O)[C@H]3CCOC3)C1)CC2", "PI3KA_Act Ki", "nM", 0.064],
  ["C[C@H]1COCCN1c1nc(-c2cnc(N)nc2)c2c(n1)N([C@H]1C[C@@H](N)C1)CC2.Cl", "PI3KA_Act Ki", "nM", 1.349],
  ["CC(C)[C@@H](O)C(=O)N1CC[C@](C)(N2CCc3c(-c4cnc(N)nc4)nc(N4CCOCC4)nc32)C1", "PI3KA_Act Ki", "nM", 0.016],
  ["CC[C@@H](N)C(=O)N1CC[C@](C)(N2CCc3c(-c4cnc(N)nc4)nc(N4CCOC[C@@H]4C)nc32)C1.Cl", "PI3KA_Act Ki", "nM", 0.026]
]}

###

Biological target: full-length PI3Kα (full-length p110α/p85α) (Homo sapiens (Human))
Experiment: PI3KA_FL fluorescence polarization kinase assay (Ki)
Assay type: biochemical
Details: 41 μM ATP
reportedMetric: PI3KA_FL Ki (nM)

{"columns": ["testSmiles", "unitAnnotation", "numericResult"],
 "data": [
  ["NC(=O)N1CC[C@H](N2CCc3c(-c4cnc(N)nc4)nc(N4CCOCC4)nc32)C1", "nM", 0.794],
  ["CC(C)[C@H](O)C(=O)N1CC[C@H](N2CCc3c(-c4cnc(N)nc4)nc(N4CCOCC4)nc32)C1", "nM", 0.841],
  ["COC(=O)N1CC(N2CCc3c(-c4cnc(N)nc4)nc(N4CCOCC4)nc32)C1", "nM", 0.234],
  ["CC(C)N1CCc2c(-c3cnc(N)nc3)nc(N3CCOCC3)nc21", "nM", 3.883]
]}

###

Target: truncated PI3Kα (p110α/iSH2 p85α) (Homo sapiens (Human))
Assay: PI3KA_Act fluorescence polarization kinase assay (Ki)
Assay type: biochemical
Details: 1 mM ATP
Method: 2) p110α-iSH2 p85α Complex (Full Length p110α and p85α iSH2)(“PI3KA_Act”) […] The biochemical assays of kinase activity of full-length PI3Kα (full-length p110α/p85a) or truncated PI3Kα (p110α/iSH2 p85a) were conducted using a fluorescence polarization format similar to the procedure of Yuan J., et al., (2011) “PF-04691502, a Potent and Selective Oral Inhibitor of PI3K and mTOR Kinases with Antitumor Activity”, Mol Cancer Ther. 10, 2189-2199. […]
PI3KA_Act Ki values for the compounds below.
reportedMetric: PI3KA_Act Ki

{"columns": ["compound", "reportedMetric", "result"],
 "data": [
  ["CC(N)(CF)C(=O)N1CC[C@](C)(N2CCc3c(-c4cnc(N)nc4)nc(N4CCOCC4)nc32)C1.Cl (stereo partly drawn)", "PI3KA_Act Ki", "<18 pM"],
  ["C[C@]1(N2CCc3c(-c4cnc(N)nc4)nc(N4CCOCC4)nc32)CCN(C(=O)[C@@]2(F)CCNC2)C1.Cl", "PI3KA_Act Ki", "<18 pM"],
  ["CC(C)S(=O)(=O)N1CC(C)(N2CCc3c(-c4cnc(N)nc4)nc(N4CCOC[C@@H]4C)nc32)C1", "PI3KA_Act Ki", "<18 pM"]
]}

###

Target: truncated PI3Kα (p110α/iSH2 p85α) (Homo sapiens (Human), UniProt P42336)
Assay: PI3KA_Act fluorescence polarization kinase assay (Ki)
Type: biochemical
Conditions: 1 mM ATP
# Lookup of reported PI3KA_Act Ki keyed by entry
reportedMetric: PI3KA_Act Ki

{"columns": ["compound", "result"],
 "data": [
  ["CC[C@]1(N2CCc3c(-c4cnc(N)nc4)nc(N4CCOCC4)nc32)CCN(C(=O)OC(C)(C)C)C1 [Example 411]", "<0.018 nM"],
  ["C[C@]1(N2CCc3c(-c4cnc(N)nc4)nc(N4CCOCC4)nc32)CCN(C(=O)N2CC(C#N)C2)C1 [Example 363]", "0.039 nM"],
  ["CC(C)(C)OC(=O)N1CC(N2CCc3c(-c4cnc(N)nc4)nc(N4CCOCC4)nc32)C1 [Example 248]", "0.212 nM"],
  ["C[C@H](O)COC(=O)N1CC(N2CCc3c(-c4cnc(N)nc4)nc(N4CCOC[C@@H]4C)nc32)C1 [Example 182]", "0.357 nM"]
]}

###

The entries below are paired with their reported PI3KA_Act Ki.
Molecular target: truncated PI3Kα (p110α/iSH2 p85α) (Homo sapiens (Human))
Experiment: PI3KA_Act fluorescence polarization kinase assay (Ki)
Type: biochemical
Details: 1 mM ATP

{"columns": ["molecule", "PI3KA_Act Ki, nM"],
 "data": [
  ["C[C@]1(N2CCc3c(-c4cnc(N)nc4)nc(N4CCOCC4)nc32)CCN(C(=O)[C@@H]2C[C@@H]2F)C1 [Example 334]", 0.021],
  ["CS(=O)(=O)N1CC(N2CCc3c(-c4cnc(N)nc4)nc(N4CCOCC4)nc32)C1 [Example 73]", 0.303],
  ["C[C@@]1(N2CCc3c(-c4cnc(N)nc4)nc(N4CCOCC4)nc32)CCN(C(=O)CC(F)(F)F)C1 [Example 308]", 0.126],
  ["CNC(=O)COC(=O)N1CC(N2CCc3c(-c4cnc(N)nc4)nc(N4CCOC[C@@H]4C)nc32)C1 [Example 143]", 0.262]
]}

###

Biological target: full-length PI3Kα (full-length p110α/p85α) (Homo sapiens (Human), UniProt P42336)
Sequence (P42336 whole entry): as the sequence (P42336 whole entry, the tested form may be a part) above
Sequence (P27986 whole entry partner): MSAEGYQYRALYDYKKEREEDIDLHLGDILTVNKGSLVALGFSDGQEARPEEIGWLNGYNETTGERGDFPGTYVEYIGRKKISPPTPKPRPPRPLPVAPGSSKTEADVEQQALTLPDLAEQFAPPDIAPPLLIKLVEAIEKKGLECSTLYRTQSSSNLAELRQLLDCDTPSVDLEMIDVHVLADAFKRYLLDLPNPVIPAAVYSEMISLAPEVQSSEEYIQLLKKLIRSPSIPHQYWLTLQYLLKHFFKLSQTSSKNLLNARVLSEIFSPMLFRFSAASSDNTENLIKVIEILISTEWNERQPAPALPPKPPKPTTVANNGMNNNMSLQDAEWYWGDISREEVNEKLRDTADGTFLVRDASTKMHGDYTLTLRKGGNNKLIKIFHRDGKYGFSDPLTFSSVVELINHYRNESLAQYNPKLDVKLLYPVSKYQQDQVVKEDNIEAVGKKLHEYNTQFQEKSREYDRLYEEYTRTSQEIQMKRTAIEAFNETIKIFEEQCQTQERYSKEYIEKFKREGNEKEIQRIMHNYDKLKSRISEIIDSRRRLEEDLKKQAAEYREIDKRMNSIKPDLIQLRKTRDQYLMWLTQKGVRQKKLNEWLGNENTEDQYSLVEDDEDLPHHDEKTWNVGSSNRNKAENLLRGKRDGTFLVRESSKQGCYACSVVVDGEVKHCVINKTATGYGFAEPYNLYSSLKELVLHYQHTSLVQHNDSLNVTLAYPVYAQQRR
Test: PI3KA_FL fluorescence polarization kinase assay (Ki)
Type: biochemical
Settings: 41 μM ATP
reportedMetric: PI3KA_FL Ki (nM)

{"columns": ["compound", "numericResult"],
 "data": [
  ["Nc1ncc(-c2nc(N3CCOCC3)nc3c2CCN3[C@@H]2CCCOC2)cn1 [Example 48]", 3.543],
  ["Nc1ncc(-c2nc(N3CCOCC3)nc3c2CCN3[C@H]2CCCOC2)cn1 [Example 47]", 3.320],
  ["CNS(=O)(=O)N1CC[C@@H](N2CCc3c(-c4cnc(N)nc4)nc(N4CCOCC4)nc32)C1 [Example 81]", 0.788],
  ["C[C@H]1COCCN1c1nc(-c2cnc(N)nc2)c2c(n1)N([C@H]1C[C@H](N(C)S(C)(=O)=O)C1)CC2 [Example 90]", 0.403],
  ["CC(=O)N1C[C@H](F)[C@@H](N2CCc3c(-c4cnc(N)nc4)nc(N4CCOCC4)nc32)C1 (single isomer, unassigned) [Example 67]", 1.899],
  ["CS(=O)(=O)N1CCC[C@H](N2CCc3c(-c4cnc(N)nc4)nc(N4CCOCC4)nc32)C1 [Example 99]", 2.122],
  ["CS(=O)(=O)N1CC(N2CCc3c(-c4cnc(N)nc4)nc(N4CCOCC4)nc32)C1 [Example 73]", 0.350],
  ["CN(C)S(=O)(=O)[C@H]1CC[C@@H](N2CCc3c(-c4cnc(N)nc4)nc(N4CCOCC4)nc32)C1 [Example 129]", 0.380],
  ["CNS(=O)(=O)N(C)[C@H]1C[C@@H](N2CCc3c(-c4cnc(N)nc4)nc(N4CCOCC4)nc32)C1 [Example 57]", 0.318],
  ["CCS(=O)(=O)N1CC[C@@H](N2CCc3c(-c4cnc(N)nc4)nc(N4CCOCC4)nc32)C1 [Example 112]", 0.491],
  ["C[C@H]1COCCN1c1nc(-c2cnc(N)nc2)c2c(n1)N([C@H]1CCN(C(=O)OC(C)(C)C)C1)CC2 [Example 76]", 0.359],
  ["CNS(=O)(=O)N1CC[C@H](N2CCc3c(-c4cnc(N)nc4)nc(N4CCOCC4)nc32)C1 [Example 38]", 0.228],
  ["CNS(=O)(=O)[C@H]1CC[C@@H](N2CCc3c(-c4cnc(N)nc4)nc(N4CCOCC4)nc32)C1 [Example 130]", 0.352],
  ["CC(=O)N1C[C@@H](N2CCc3c(-c4cnc(N)nc4)nc(N4CCOCC4)nc32)[C@H](C(F)F)C1 [Example 63]", 6.612],
  ["CN([C@H]1C[C@@H](N2CCc3c(-c4cnc(N)nc4)nc(N4CCOCC4)nc32)C1)S(C)(=O)=O [Example 49]", 0.722],
  ["Nc1ncc(-c2nc(N3CCOCC3)nc3c2CCN3[C@@H]2CC[C@H](S(N)(=O)=O)C2)cn1 [Example 137]", 0.664],
  ["CC(=O)N1CC[C@H](N2CCc3c(-c4cnc(N)nc4)nc(N4CCOC[C@@H]4C)nc32)C1 [Example 96]", 2.093],
  ["Nc1ncc(-c2nc(N3CCOCC3)nc3c2CCN3[C@@H]2CCNC(=O)C2)cn1 [Example 77]", 8.025],
  ["CC(C)OC(=O)N1CC[C@H](N2CCc3c(-c4cnc(N)nc4)nc(N4CCOC[C@@H]4C)nc32)C1 [Example 124]", 0.333],
  ["CC(=O)N1C[C@@H](C)[C@@H](N2CCc3c(-c4cnc(N)nc4)nc(N4CCOCC4)nc32)C1 [Example 68]", 9.393],
  ["C[C@]1(O)C[C@H](N2CCc3c(-c4cnc(N)nc4)nc(N4CCOCC4)nc32)C1 [Example 39]", 0.738]
]}
